target: human CD33 L271A (human, UniProt P20138 18-364); experiment: alanine scan, flow cytometry, HEK293-T;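 note: antibody binding to each alanine-substituted CD33 mutant expressed transiently in HEK293-T, read as fluorescence minus background, mean of duplicates, relative to wild-type CD33 set as 100%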
Sequence (P20138 18-364 L271A limits assumed): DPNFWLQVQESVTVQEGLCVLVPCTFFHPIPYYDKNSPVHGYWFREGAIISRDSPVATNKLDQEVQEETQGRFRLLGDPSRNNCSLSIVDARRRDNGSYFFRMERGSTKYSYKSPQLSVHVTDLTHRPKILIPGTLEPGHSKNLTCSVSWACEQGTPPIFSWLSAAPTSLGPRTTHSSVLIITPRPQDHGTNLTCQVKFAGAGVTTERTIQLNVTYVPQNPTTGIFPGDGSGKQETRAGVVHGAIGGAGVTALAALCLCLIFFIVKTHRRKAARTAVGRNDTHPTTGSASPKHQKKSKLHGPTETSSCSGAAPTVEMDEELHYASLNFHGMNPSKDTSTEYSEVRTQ
measurement.label: Mean % WT Binding (% WT binding)

binder="Refmab #4 (antibody, V domains shown, The alanine scan used IgG or Fab) VH: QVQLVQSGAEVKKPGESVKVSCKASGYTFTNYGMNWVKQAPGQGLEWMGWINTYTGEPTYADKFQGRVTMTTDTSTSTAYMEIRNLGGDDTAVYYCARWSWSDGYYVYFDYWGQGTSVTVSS VL: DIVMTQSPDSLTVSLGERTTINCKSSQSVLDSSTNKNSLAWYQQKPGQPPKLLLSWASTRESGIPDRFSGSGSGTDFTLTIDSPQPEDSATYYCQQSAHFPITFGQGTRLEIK" recorded_measurement=113
binder="Refmab #3 (antibody, V domains shown, The alanine scan used IgG or Fab) VH: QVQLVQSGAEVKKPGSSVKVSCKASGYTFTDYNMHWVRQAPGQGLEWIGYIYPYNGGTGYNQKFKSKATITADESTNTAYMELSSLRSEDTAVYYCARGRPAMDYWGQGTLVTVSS VL: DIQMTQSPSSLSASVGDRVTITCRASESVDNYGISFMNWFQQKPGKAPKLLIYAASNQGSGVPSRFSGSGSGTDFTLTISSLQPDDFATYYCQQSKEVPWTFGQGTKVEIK" recorded_measurement=135
binder="Refmab #2 (antibody, V domains shown, The alanine scan used IgG or Fab) VH: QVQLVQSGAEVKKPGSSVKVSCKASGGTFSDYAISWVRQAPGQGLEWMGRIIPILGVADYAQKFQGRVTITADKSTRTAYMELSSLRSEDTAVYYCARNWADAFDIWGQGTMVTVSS VL: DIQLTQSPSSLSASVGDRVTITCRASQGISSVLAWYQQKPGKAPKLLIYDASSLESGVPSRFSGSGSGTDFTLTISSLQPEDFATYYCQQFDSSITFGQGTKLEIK" recorded_measurement=113
binder="Refmab #1 (antibody, V domains shown, The alanine scan used IgG or Fab; also called hP67.6) VH: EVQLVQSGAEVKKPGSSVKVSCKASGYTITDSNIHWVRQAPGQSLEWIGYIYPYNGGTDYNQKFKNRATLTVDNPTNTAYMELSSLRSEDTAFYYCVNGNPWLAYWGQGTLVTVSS VL: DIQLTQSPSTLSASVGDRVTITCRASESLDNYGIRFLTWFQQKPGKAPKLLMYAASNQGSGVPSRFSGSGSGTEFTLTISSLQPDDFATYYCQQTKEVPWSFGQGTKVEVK" recorded_measurement=100
